# targetSystem: Sodium-dependent noradrenaline transporter (Homo sapiens)
# assayProcedure: Inhibition of NET (unknown origin) at 10 uM relative to control
Classification field: enter 1 (yes) for inhibition values not below 60%, 0 (no) for values below it.

In [3]: df
Out[3]:
                    chemicalstructure  classname
0  Cl.NCc1ccc(OCc2ccccc2OC(F)(F)F)cc1     0 (no)
1           Cl.NCc1ccc(OCc2ccccc2)cc1    1 (yes)
2       Cl.NCc1ccc(OCc2cccc(Cl)c2)cc1    1 (yes)
3       Cl.NCc1ccc(OCc2ccc(Cl)cc2)cc1    1 (yes)
4        Cl.NCc1ccc(OCc2cccc(F)c2)cc1    1 (yes)
